This collection of values is drawn from ChEMBL document CHEMBL3232848.

Test system: Plasmodium berghei
PROTOCOL: Antimicrobial activity against Plasmodium berghei sporozoites infected in 12 hrs compound pretreated human HepG2 cells assessed as reduction in viability of exoerythrocytic forms measured after 48 hrs of incubation by luciferase bioluminescence assay
Type: functional, organism-based
OBSERVABLE: pEC50
Schema: pEC50 number; meaning minus log10 of the concentration expressed in molar units.

>>> recorded_number("Cc1nn(C)c(C)c1Cc1nnc(-c2sc3ccccc3c2OC2CCNCC2)o1")
6.43

Query block: // lookup pEC50 for "O=C1C(O)=C([C@H]2CC[C@H](c3ccc(Cl)cc3)CC2)C(=O)c2ccccc21"
Result block: 9.30

###

The entries below are paired with their reported pKi.
ASSAYED TARGET: Glycylpeptide N-tetradecanoyltransferase (Plasmodium falciparum (isolate 3D7))
PROTOCOL: Inhibition of Plasmodium falciparum N-myristoyltransferase by CPM fluorescence assay
Schema: pKi number; meaning minus log10 of the concentration expressed in molar units.

Use the examples below as a reference point.
>>> recorded_number("OC(c1ccccc1)c1nnc(-c2sc3ccccc3c2OC2CCNCC2)o1 (racemic)")
6.90
>>> recorded_number("O=C(OCCc1ccccc1)c1sc2ccccc2c1OC1CCNCC1")
6.17
>>> recorded_number("Clc1cccc(Cc2noc(-c3sc4ccccc4c3OC3CCNCC3)n2)c1")
6.79
>>> recorded_number("O=C(OCCCc1ccccc1)c1sc2ccccc2c1OC1CCNCC1")
5.40
>>> recorded_number("CC(C)(c1ccccc1)c1nnc(-c2sc3ccccc3c2OC2CCNCC2)o1")
6.82
>>> recorded_number("c1ccc(Cc2noc(-c3sc4ccccc4c3OC3CCNCC3)n2)cc1")
7.15
>>> recorded_number("c1ccc(C(c2ccccc2)c2nnc(-c3sc4ccccc4c3OC3CCNCC3)o2)cc1")
6.33
>>> recorded_number("Cc1nn(C)c(C)c1CCc1nnc(-c2sc3ccccc3c2OC2CCNCC2)o1")
6.91

Next:
Query block: API: value(readout= pKi, system= Glycylpeptide N-tetradecanoyltransferase (Plasmodium falciparum (isolate 3D7)), query= "c1ccc(Cc2nc(-c3sc4ccccc4c3OC3CCNCC3)no2)cc1" )
Result block: 6.92

###

ASSAYED TARGET: Glycylpeptide N-tetradecanoyltransferase (Plasmodium falciparum (isolate 3D7))
Sequence (Q8ILW6 whole entry): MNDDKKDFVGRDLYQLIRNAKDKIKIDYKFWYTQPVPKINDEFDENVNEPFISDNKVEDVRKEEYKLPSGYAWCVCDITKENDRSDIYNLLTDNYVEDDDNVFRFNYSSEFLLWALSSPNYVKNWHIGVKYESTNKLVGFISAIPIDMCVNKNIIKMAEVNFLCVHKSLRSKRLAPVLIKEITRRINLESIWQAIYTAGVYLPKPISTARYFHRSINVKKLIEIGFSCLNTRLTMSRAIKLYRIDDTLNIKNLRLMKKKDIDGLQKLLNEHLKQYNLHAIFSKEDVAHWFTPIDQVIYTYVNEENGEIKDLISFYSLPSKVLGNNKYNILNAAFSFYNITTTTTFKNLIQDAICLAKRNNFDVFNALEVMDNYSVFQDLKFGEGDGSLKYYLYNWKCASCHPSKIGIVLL
PROTOCOL: Inhibition of Plasmodium falciparum N-myristoyltransferase by CPM fluorescence assay
pKi: −log10 of the molar value.
Tag: yes if measured pKi is not below 7, no if it is.

>>> label("Cc1n[nH]c(C)c1Cc1nnc(-c2sc3ccccc3c2OC2CCNCC2)o1")
"yes"
>>> label("COc1cccc(Cc2noc(-c3sc4ccccc4c3OC3CCNCC3)n2)c1")
"yes"
>>> label("c1ccc(CCc2noc(-c3sc4ccccc4c3OC3CCNCC3)n2)cc1")
"no"
>>> label("FC(F)(c1ccccc1)c1nnc(-c2sc3ccccc3c2OC2CCNCC2)o1")
"no"
>>> label("Cc1n[nH]c(C)c1CCc1nnc(-c2sc3ccccc3c2OC2CCNCC2)o1")
"no"

Query block: Reported pKi reaches at least 7 for "Cc1noc(C)c1CCc1nnc(-c2sc3ccccc3c2OC2CCNCC2)o1" ?
Result block: no

Query block: Reported pKi reaches at least 7 for "COc1cccc(Cc2nc(-c3sc4ccccc4c3OC3CCNCC3)no2)c1" ?
Result block: yes

Query block: Reported pKi reaches at least 7 for CC(c1ccccc1)c1nnc(-c2sc3ccccc3c2OC2CCNCC2)o1 (racemic) ?
Result block: no

###

PROTOCOL: Selectivity ratio of Ki for human N-myristoyltransferase to Ki for Plasmodium falciparum N-myristoyltransferase
OBSERVABLE: Ratio Ki
No unit in the answer, please; the number alone is enough.

Query block: // lookup Ratio Ki for "COc1cccc(Cc2nnc(-c3sc4ccccc4c3OC3CCNCC3)o2)c1"
Result block: 13

Query block: // lookup Ratio Ki for "Cc1n[nH]c(C)c1Cc1nnc(-c2sc3ccccc3c2OC2CCNCC2)o1"
Result block: 30

Query block: // lookup Ratio Ki for "Cc1nn(C)c(C)c1Cc1nnc(-c2sc3ccccc3c2OC2CCNCC2)o1"
Result block: 8

Query block: // lookup Ratio Ki for "Cc1noc(C)c1Cc1nnc(-c2sc3ccccc3c2OC2CCNCC2)o1"
Result block: 8

###

PROTOCOL: Selectivity ratio of LD50 for human HepG2 cells to EC50 for blood-stage Plasmodium falciparum NF54
Format: ADME, cell-based
CONDITIONS: read-out: Ratio LD50/EC50
OBSERVABLE: selectivity ratio

Query block: // lookup selectivity ratio for "Cc1nn(C)c(C)c1Cc1nnc(-c2sc3ccccc3c2OC2CCNCC2)o1"
Result block: ≤ 40

###

System: Plasmodium falciparum
PROTOCOL: Antimicrobial activity against late stage trophozoite form of Plasmodium falciparum 3D7 infected in RBCs after 48 hrs by SYBR green viability assay
Type: functional, organism-based
CONDITIONS: 3D7, 96 h, in the assay text read “after 96 hrs” for “after 48 hrs”
The entries below are paired with their reported EC50.
Report the value in µM with no unit label.

Use the examples below as a reference point.
>>> recorded_number("c1ccc(Cc2nnc(-c3sc4ccccc4c3OC3CCNCC3)o2)cc1")
9.5
>>> recorded_number("COc1cccc(Cc2nnc(-c3sc4ccccc4c3OC3CCNCC3)o2)c1")
5.5
>>> recorded_number("COc1cccc(CCOC(=O)c2sc3ccccc3c2OC2CCNCC2)c1")
4.2
>>> recorded_number("Cc1nn(C)c(C)c1Cc1nnc(-c2sc3ccccc3c2OC2CCNCC2)o1")
0.302
>>> recorded_number("O=C(OCCc1ccccc1)c1sc2ccccc2c1OC1CCNCC1")
5.6

Query block: // lookup EC50 for "c1ccc(CCc2noc(-c3sc4ccccc4c3OC3CCNCC3)n2)cc1"
Result block: 3.79

###

PROTOCOL: Cytotoxicity against human HepG2 cells after 72 hrs by MTS assay
Format: cell-based
CONDITIONS: read-out: LD50
OBSERVABLE: CC50 at 72 h (µM)
Report the value in µM with no unit label.

Query block: // lookup CC50 at 72 h for "Cc1nn(C)c(C)c1Cc1nnc(-c2sc3ccccc3c2OC2CCNCC2)o1"
Result block: 12.3

###

PROTOCOL: Selectivity ratio of LD50 for human HepG2 cells to EC50 for blood-stage Plasmodium falciparum Dd2
Type: ADME, cell-based
CONDITIONS: read-out: Ratio LD50/EC50
OBSERVABLE: selectivity ratio
No unit in the answer, please; the number alone is enough.

Query block: // lookup selectivity ratio for "Cc1nn(C)c(C)c1Cc1nnc(-c2sc3ccccc3c2OC2CCNCC2)o1"
Result block: 14

###

PROTOCOL: Inhibition of human N-myristoyltransferase using H-Gly-Ser-Asn-Lys-Ser-Lys-Pro-Lys-NH2 as substrate by CPM fluorescence assay
In plain terms, low Ki, meaning strictly below 2000 nM, gives YES, and everything else gives NO.

Would you please look over these solved cases?
>>> label("COc1cccc(Cc2noc(-c3sc4ccccc4c3OC3CCNCC3)n2)c1")
"YES"
>>> label("Cc1nn(C)c(C)c1CCc1nnc(-c2sc3ccccc3c2OC2CCNCC2)o1")
"YES"
>>> label("Cc1n[nH]c(C)c1Cc1nnc(-c2sc3ccccc3c2OC2CCNCC2)o1")
"YES"
>>> label("COc1cccc(CCOC(=O)c2sc3ccccc3c2OC2CCNCC2)c1")
"NO"
>>> label("COc1cc(Cc2noc(-c3sc4ccccc4c3OC3CCNCC3)n2)cc(OC)c1")
"YES"

Query block: In plain terms, does "COc1cc(CCOC(=O)c2sc3ccccc3c2OC2CCNCC2)cc(OC)c1" come in under 2000 nM for Ki?
Result block: YES

Query block: In plain terms, does "COc1cccc(Cc2nc(-c3sc4ccccc4c3OC3CCNCC3)no2)c1" come in under 2000 nM for Ki?
Result block: YES

Query block: In plain terms, does OC(c1ccccc1)c1nnc(-c2sc3ccccc3c2OC2CCNCC2)o1 (racemic) come in under 2000 nM for Ki?
Result block: NO

Query block: In plain terms, does "c1ccc(Cc2nc(-c3sc4ccccc4c3OC3CCNCC3)no2)cc1" come in under 2000 nM for Ki?
Result block: YES

Query block: In plain terms, does "c1ccc(Cc2nnc(-c3sc4ccccc4c3OC3CCNCC3)o2)cc1" come in under 2000 nM for Ki?
Result block: YES
